Recorded pIC50 values for a group of compounds are listed next.
Assay system: NADH:ubiquinone oxidoreductase (complex I), LtP‐Mit (Leishmania tarentolae, UniProt A0A640KJ43+P15576+Q34939)
Sequence (Q7M3U1 entry or part of it): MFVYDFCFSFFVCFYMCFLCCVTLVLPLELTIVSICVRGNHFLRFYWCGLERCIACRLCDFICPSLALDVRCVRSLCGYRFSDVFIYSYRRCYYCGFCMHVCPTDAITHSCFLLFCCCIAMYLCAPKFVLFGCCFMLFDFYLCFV
Sequence (P15576 whole entry): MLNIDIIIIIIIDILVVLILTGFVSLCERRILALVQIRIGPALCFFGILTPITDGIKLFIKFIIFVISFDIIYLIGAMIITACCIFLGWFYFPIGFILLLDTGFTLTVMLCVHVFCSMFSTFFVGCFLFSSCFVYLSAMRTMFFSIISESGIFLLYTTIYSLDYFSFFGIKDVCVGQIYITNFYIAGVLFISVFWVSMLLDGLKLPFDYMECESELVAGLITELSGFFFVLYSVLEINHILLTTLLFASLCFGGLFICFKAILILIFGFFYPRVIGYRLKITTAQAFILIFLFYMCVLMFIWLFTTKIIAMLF
Sequence (A0A640K8W3 entry or part of it, further chain): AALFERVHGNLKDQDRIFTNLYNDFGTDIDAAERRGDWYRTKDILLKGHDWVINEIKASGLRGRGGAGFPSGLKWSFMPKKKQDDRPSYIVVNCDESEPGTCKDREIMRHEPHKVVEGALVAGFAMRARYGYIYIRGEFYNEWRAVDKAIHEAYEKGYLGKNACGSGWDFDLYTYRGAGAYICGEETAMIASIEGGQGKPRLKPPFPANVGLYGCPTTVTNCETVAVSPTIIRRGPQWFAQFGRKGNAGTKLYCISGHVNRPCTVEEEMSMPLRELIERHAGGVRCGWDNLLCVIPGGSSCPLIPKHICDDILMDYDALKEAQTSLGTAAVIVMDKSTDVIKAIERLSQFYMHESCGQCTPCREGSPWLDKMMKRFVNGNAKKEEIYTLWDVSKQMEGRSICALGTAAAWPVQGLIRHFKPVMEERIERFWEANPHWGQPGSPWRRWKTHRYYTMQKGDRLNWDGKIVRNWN
Sequence (P15583 whole entry, further chain): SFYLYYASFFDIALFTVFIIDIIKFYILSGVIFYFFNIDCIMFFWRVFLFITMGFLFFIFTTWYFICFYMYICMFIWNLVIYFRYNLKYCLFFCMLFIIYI
Sequence (Q34939 entry or part of it): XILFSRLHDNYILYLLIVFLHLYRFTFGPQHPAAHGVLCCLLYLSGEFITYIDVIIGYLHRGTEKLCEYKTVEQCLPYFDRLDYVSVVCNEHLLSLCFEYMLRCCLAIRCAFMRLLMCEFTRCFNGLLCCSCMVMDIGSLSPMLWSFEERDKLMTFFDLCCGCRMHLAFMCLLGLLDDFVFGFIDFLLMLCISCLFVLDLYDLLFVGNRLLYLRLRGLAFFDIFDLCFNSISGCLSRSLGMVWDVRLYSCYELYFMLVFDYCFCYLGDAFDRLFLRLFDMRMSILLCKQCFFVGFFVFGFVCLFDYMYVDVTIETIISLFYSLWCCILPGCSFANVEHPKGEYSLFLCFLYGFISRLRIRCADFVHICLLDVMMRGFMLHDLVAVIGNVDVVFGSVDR
Sequence (A0A640KJ43 entry or part of it): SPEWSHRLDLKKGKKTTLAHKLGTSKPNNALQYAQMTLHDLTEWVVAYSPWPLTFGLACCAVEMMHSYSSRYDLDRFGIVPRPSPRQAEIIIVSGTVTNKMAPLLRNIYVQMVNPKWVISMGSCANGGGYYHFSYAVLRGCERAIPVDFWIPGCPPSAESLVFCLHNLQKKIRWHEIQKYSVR
Assay comment: NADH:ubiquinone oxidoreductase (complex I) activity in LtP‐Mit, DCPIP
Measurement setup: read-out: IC50 Complex I LtP‐Mit
pIC50: −log10 of the molar value.
Property name: pIC50

[[record]]
compound = "CC(C)C12C=CC(C)(CC1)OO2 (stereo not drawn) [Asc, ascaridole]"
property_name = "pIC50"
recorded_result = "< 4.00"

[[record]]
compound = "Cc1ccc(C(C)C)cc1O [Car, carvacrol]"
property_name = "pIC50"
recorded_result = "< 4.00"

[[record]]
compound = "C=C1CC[C@H]2O[C@]2(C)CC[C@@H]2[C@@H]1CC2(C)C [Caryo, caryophyllene oxide]"
property_name = "pIC50"
recorded_result = "< 4.00"


====

Assay system: succinate:ubiquinone oxidoreductase (complex II), BH‐SMP (Bos taurus, UniProt P31039+P35720+Q3T189+Q95123)
Construct: from tissue; host or cells: bovine heart submitochondrial particles (BH-SMP)
Sequence (P31039 45-665 limits assumed): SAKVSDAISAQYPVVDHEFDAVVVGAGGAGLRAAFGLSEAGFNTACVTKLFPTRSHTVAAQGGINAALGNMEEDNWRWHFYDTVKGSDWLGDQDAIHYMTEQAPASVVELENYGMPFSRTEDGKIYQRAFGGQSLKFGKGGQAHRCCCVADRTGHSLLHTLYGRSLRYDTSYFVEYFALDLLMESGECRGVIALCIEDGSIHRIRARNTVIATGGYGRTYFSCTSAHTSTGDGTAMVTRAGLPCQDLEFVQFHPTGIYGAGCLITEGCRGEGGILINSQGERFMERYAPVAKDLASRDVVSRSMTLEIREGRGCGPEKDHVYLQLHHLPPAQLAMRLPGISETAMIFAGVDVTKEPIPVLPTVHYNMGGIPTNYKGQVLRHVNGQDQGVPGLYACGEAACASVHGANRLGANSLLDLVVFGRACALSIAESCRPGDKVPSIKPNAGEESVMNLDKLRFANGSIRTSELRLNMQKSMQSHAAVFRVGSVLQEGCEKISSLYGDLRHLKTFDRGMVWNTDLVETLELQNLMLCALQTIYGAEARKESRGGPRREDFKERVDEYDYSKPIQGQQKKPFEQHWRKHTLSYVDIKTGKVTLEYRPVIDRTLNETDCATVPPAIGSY
Sequence (Q3T189 29-280): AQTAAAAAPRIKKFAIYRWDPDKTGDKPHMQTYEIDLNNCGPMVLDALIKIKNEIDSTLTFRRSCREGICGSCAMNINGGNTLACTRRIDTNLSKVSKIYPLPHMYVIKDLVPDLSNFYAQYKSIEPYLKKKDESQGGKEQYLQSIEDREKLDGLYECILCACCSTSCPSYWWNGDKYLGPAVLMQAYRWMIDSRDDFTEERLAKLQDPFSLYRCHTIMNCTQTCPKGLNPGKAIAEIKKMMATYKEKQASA
Sequence (P35720 30-169): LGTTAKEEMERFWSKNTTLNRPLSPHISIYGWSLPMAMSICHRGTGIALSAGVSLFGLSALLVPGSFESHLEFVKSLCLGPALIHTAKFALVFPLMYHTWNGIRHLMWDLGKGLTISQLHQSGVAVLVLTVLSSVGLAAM
Sequence (Q95123 56-158): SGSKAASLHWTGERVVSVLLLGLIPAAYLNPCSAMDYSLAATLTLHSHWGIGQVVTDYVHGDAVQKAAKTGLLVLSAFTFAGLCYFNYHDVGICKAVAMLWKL
Assay comment: Succinate:ubiquinone oxidoreductase (complex II) activity in BH‐SMP, DCPIP
Format: biochemical, bovine
Property name: IC50

[[record]]
molecule = "CC(C)C12C=CC(C)(CC1)OO2 (stereo not shown)"
property_name = "IC50"
recorded_result = "> 100 µM"


====

Assay system: ubiquinol:cytochrome c oxidoreductase (complex III), LtP‐Mit (Leishmania tarentolae, UniProt A0A640KA58+A0A640KYQ2+P14548)
Sequence (P14548 whole entry): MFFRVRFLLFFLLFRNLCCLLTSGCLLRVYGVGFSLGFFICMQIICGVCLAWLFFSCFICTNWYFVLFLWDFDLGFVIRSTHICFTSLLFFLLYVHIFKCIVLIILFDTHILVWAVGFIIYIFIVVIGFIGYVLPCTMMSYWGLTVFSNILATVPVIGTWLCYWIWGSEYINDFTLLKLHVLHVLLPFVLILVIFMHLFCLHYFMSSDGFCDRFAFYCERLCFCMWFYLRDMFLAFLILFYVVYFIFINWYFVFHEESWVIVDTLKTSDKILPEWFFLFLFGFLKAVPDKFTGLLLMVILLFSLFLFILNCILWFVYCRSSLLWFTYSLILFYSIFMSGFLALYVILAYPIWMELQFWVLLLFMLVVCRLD
Sequence (A0A640KA58 entry or part of it): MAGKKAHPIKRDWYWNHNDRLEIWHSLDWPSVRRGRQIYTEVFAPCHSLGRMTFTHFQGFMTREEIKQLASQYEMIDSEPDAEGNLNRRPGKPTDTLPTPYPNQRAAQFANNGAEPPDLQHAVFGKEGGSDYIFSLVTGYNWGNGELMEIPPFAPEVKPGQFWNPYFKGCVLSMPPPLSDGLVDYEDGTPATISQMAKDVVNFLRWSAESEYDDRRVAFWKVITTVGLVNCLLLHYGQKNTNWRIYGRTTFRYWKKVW
Sequence (A0A640KYQ2 entry or part of it): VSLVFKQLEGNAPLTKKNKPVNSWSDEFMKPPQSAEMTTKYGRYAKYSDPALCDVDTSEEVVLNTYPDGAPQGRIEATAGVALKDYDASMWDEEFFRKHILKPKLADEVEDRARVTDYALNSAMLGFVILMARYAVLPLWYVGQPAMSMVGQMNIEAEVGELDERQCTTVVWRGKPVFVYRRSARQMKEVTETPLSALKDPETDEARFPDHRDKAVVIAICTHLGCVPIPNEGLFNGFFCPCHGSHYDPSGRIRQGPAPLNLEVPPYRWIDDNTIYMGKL
Assay comment: dUQH2:cyt c3+ oxidoreductase (complex III) activity in LtP‐Mit
Type: biochemical
pIC50: −log10 of the molar value.
Property name: pIC50

[[record]]
compound = "CC(C)C12C=CC(C)(CC1)OO2 (stereo not shown)"
recorded_result = 3.88


====

Assay system: succinate:ubiquinone oxidoreductase (complex II), BH‐SMP (Bos taurus, UniProt P31039+P35720+Q3T189+Q95123)
Construct: from tissue; host or cells: bovine heart submitochondrial particles (BH-SMP)
Assay comment: Succinate:ubiquinone oxidoreductase (complex II) activity in BH‐SMP, DCPIP
Format: biochemical, bovine
Measurement setup: read-out: IC50 Complex II BH‐SMP
pIC50: −log10 of the molar value.
Property name: pIC50

[[record]]
compound = "C=C1CC[C@H]2O[C@]2(C)CC[C@@H]2[C@@H]1CC2(C)C [Caryo, caryophyllene oxide]"
property_name = "pIC50"
recorded_result = "< 4.00"

[[record]]
compound = "Cc1ccc(C(C)C)cc1O [Car, carvacrol]"
property_name = "pIC50"
recorded_result = "< 4.00"


====

Assay system: cytochrome bc 1 complex purified from Saccharomyces cerevisiae (Saccharomyces cerevisiae, UniProt P00163+P07143+P08067)
Construct: endogenous in cells; host or cells: Native complex purified in house from yeast submitochondrial particles (Triton X-100, hydroxyapatite)
Assay comment: dUQH2:cyt c3+ oxidoreductase activity of isolated ScY‐bc 1
Format: biochemical
Measurement setup: immediate inhibition, five experiments; read-out: IC50 ± SD ScY‐bc 1
Property name: IC50 (µM)

[[record]]
molecule = "C=C1CC[C@H]2O[C@]2(C)CC[C@@H]2[C@@H]1CC2(C)C [Caryo, caryophyllene oxide]"
property_name = "IC50"
readout_units = "µM"
recorded_result = 179

[[record]]
molecule = "Cc1ccc(C(C)C)cc1O"
property_name = "IC50"
readout_units = "µM"
recorded_result = 941

